// provenance: patent US20240084003A1

Target: T1, human CD22-ECD-His protein (human, UniProt P20273 20-687)
T1 construct: Made in house in HEK293E; also called hCD22-ECD-His; recombinant human CD22-ECD His protein; not shown: His tag
T1 sequence: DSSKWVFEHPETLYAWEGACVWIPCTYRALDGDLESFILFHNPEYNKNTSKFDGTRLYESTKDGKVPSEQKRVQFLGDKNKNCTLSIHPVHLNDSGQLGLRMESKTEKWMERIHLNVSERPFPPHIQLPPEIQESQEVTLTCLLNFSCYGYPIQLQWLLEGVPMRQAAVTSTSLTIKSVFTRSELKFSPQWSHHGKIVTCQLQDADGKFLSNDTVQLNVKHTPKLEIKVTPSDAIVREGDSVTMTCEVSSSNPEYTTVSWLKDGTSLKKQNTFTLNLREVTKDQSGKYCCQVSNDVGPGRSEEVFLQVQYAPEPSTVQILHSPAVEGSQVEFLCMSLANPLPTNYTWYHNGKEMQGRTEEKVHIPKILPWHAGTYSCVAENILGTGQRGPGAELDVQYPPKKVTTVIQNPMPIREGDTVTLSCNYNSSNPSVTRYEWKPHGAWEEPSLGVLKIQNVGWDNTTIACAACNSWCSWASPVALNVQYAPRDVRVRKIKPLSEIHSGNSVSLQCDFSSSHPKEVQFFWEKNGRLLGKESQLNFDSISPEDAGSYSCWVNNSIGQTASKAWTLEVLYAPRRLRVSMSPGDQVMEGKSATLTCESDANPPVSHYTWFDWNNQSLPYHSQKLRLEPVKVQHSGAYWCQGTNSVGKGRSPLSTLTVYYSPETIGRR
Assay: ELISA, Ab 10.00 nM
Experimental: In order to detect the binding activity of CD22 human-murine chimeric antibodies to CD22 protein, the purified human CD22-ECD-His protein obtained in Example 2 was diluted with PBS to a final concentration of 2 μg/mL, and then added to 96-well ELISA plate at 100 μl/well. The plate was sealed with plastic film and incubated overnight at 4° C., the plate was washed 2 times with PBS the next day, and then a blocking solution [PBS+2% (w/w) BSA] was added for blocking at room temperature for 2 hours. […]
Quantity: OD450 (OD450)
Write the answer as a number in OD450, unit excluded.

Consider the following illustrative entries.
[
  {
    "Binder": "F2.127.11 (antibody, human IgG1, lambda, V domains shown, Human-murine chimeric IgG1, lambda) VH: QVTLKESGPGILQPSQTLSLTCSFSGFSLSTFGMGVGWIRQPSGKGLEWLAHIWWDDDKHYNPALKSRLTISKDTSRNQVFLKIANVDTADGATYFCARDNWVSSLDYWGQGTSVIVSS VL: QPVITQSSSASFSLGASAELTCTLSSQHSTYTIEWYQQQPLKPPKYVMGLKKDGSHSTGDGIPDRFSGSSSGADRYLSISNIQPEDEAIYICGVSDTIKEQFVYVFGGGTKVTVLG",
    "Quantity unit": "OD450",
    "OD450": 1.98
  },
  {
    "Binder": "F1.250.16 (antibody, human IgG1, kappa, V domains shown, Human-murine chimeric IgG1, kappa) VH: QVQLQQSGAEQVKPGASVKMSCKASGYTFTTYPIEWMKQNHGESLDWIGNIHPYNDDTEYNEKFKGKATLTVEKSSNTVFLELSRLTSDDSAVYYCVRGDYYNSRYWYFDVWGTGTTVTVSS VL: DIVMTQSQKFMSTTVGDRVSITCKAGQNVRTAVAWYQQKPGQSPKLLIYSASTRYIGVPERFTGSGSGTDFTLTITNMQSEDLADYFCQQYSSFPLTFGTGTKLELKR",
    "Quantity unit": "OD450",
    "OD450": 2.56
  },
  {
    "Binder": "F1.267.9 (antibody, human IgG1, kappa, V domains shown, Human-murine chimeric IgG1, kappa) VH: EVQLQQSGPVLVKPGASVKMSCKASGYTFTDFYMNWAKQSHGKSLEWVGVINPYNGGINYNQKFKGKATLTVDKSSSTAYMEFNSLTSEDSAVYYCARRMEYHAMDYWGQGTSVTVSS VL: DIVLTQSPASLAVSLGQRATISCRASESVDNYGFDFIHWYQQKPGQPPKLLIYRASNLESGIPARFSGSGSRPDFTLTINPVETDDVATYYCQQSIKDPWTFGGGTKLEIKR",
    "Quantity unit": "OD450",
    "OD450": 2.55
  }
]

Query string: Could you tell me which OD450 is on file for F1.105.11 (antibody, human IgG1, kappa, V domains shown, Human-murine chimeric IgG1, kappa) VH: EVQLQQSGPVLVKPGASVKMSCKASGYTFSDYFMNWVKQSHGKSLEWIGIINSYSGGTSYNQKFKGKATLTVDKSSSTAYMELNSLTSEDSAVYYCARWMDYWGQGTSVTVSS VL: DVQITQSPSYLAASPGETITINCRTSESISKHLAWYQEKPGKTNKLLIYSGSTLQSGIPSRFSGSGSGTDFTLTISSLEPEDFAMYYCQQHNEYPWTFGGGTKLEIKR ?
Result string: 2.68
